- Tested on: U-251
- assay comment: NCI tumour cell line growth inhibition, 48 h
Active and inactive are the calls of the source. Cut-off read from the data, not from the text of the source: active = GI50 up to about 1.1 µM and inactive = higher. Where a SMILES comes first, the peptide text is derived from it. [ ]: non-standard residue; d: D form. The star is where a group is joined. NMeAc5c = CNC1(C(=O)O)CCCC1; Boc = CC(C)(C)OC(=O)*; OBn = c1ccc(CO*)cc1
Lab note: assign the record to one of active, inactive

Reference set (5 entries):
compound: CCOC(=O)[C@H]1Nc2ccc(C)cc2C2c3ccccc3CC21 (stereo not given in full)
cat: inactive

compound: O=S1(=O)C[C@@H](O)[C@H](O)CS1
cat: inactive

compound: CN(C(=O)C(Cc1ccccc1)NC(=O)OC(C)(C)C)C1(C(=O)NC(Cc2ccccc2)C(=O)OCc2ccccc2)CCCC1 (stereo not drawn) (Boc-Phe-[NMeAc5c]-Phe-OBn; configuration not given here)
cat: inactive

compound: CO/N=C1/c2sccc2[C@H](NC(=O)C(F)(F)F)[C@@H]1O
cat: inactive

compound: CC(C)(NO)/C(=N\O)c1ccccc1
cat: inactive

Lab log entry: CC1CN=C(N(Cc2ccc(F)cc2)C(=O)Nc2ccc(Cl)cc2)S1 (stereo not given) — outcome as called in the assay? inactive

Lab log entry: "COc1ccc2c(c1)NC1(CCN(CCCC(=O)c3ccc(F)cc3)CC1)N=N2" — outcome as called in the assay? inactive

Lab log entry: "Clc1ccc(C(c2ccc(Cl)cc2)c2cncnc2)cc1" — outcome as called in the assay? inactive

Lab log entry: "COC(=O)[C@H](Cc1ccccc1)NC(=O)NCCN(CCNC(=O)N[C@@H](Cc1ccccc1)C(=O)OC)C(=O)N[C@@H](Cc1ccccc1)C(=O)OC" — outcome as called in the assay? inactive

Lab log entry: "Cc1cc(C(C)(C)C)cc(CNC2CCCCC2)c1O" — outcome as called in the assay? inactive

Lab log entry: "CN(C)CCNc1nc2c(no[n+]2[O-])c2ccccc12.[O-][Cl+3]([O-])([O-])O" — outcome as called in the assay? inactive

Lab log entry: "CCCCc1ccc(Nc2cc(=O)n(C)c(=O)[nH]2)cc1" — outcome as called in the assay? inactive

Lab log entry: CCC1(O)CC(OC2CC(N(C)C)C(OC3CC(O)C(OC4CCC(=O)C(C)O4)C(C)O3)C(C)O2)c2c(cc3c(c2O)C(=O)c2c(O)ccc(O)c2C3=O)C1C(=O)OC (stereo not given) — outcome as called in the assay? active

Lab log entry: "c1ccc(Cn2c(-c3ccc(-c4ccccc4)cc3)cc3ccccc32)cc1" — outcome as called in the assay? inactive

Lab log entry: "Nc1cc[nH]c(=O)n1" — outcome as called in the assay? inactive

Lab log entry: "Nc1nc(-c2ccccc2)nc2oc(-c3cccs3)nc12" — outcome as called in the assay? inactive

Lab log entry: "COc1cc(C)c(/C=C/C(=O)N2C(=O)OC[C@@H]2c2ccccc2)c(C)c1" — outcome as called in the assay? inactive

Lab log entry: NS(=O)(=O)C1CCCCC1C(=O)NNC(=O)C(=O)Nc1nnc(S)[nH]1 (stereo not given) — outcome as called in the assay? inactive

Lab log entry: "N#Cc1c(C#N)c(-c2ccccc2)n(/N=C\c2ccccc2)c1N" — outcome as called in the assay? inactive

Lab log entry: CC1(C)CCCC(C)(C2CCC3(C)C2C(O)CC2C4(C)CCC(O)C(C)(C)C4CCC23C)O1 (stereo not given) — outcome as called in the assay? inactive
